target: TYK2 (Homo sapiens (Human))
Sequence (P29597 whole entry, species assumed): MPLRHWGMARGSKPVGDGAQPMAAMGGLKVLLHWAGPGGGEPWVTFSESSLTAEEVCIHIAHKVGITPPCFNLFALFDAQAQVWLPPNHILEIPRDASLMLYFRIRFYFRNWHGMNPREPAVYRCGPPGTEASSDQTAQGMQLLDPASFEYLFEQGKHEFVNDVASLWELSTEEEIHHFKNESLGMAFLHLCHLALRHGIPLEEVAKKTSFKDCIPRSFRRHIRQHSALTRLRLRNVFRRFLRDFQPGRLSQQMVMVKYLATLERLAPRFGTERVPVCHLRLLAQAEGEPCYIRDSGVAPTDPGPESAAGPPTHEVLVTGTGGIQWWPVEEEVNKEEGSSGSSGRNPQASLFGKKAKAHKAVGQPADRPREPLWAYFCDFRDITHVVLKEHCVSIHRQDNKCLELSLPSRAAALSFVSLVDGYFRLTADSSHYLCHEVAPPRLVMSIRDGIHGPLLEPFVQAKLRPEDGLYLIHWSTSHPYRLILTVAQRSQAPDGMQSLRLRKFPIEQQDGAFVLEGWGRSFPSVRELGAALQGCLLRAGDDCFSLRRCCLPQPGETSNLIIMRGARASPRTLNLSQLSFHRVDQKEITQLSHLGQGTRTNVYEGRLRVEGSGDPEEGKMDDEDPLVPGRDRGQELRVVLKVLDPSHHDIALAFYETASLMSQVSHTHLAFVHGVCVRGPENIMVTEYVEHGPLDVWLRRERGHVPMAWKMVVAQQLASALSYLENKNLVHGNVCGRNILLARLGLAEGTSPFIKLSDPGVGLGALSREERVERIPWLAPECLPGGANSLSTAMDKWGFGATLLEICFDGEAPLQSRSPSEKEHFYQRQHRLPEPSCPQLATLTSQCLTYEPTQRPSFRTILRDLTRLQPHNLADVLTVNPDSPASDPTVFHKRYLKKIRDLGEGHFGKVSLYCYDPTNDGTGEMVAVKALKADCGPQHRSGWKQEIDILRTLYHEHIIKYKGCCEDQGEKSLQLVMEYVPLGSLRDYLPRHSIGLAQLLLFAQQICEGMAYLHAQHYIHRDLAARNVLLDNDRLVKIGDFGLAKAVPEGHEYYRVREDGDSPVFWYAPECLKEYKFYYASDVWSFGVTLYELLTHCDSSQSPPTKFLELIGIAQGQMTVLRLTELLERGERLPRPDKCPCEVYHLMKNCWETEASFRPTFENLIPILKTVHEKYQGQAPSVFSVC
pIC50: −log10 of the molar value. Counter-ions that a name gives are not always drawn.
Experimental readout: pIC50

Recorded results for 6 compounds are shown here.
{"Compound": "CCc1cc(O)c(F)cc1-c1cc2[nH]nc(C(=O)NC)c2c(NCc2ccccc2N(CC)S(=O)(=O)CC)n1 [Example 2]", "Experimental readout": "pIC50", "Reading": 7.92}
{"Compound": "CCc1cc(O)ccc1-c1cc2[nH]ncc2c(NCc2ccccc2N(C)S(C)(=O)=O)n1 [Example 125, hydrochloride]", "Experimental readout": "pIC50", "Reading": 8.25}
{"Compound": "CN(c1ccc(Cl)cc1CNc1nc(-c2cc(F)c(O)cc2CC(F)(F)F)cc2[nH]nc(C(N)=O)c12)S(C)(=O)=O [Example 89]", "Experimental readout": "pIC50", "Reading": 6.04}
{"Compound": "CCc1cc(O)c(F)cc1-c1cc2[nH]nc(-n3cccn3)c2c(NCc2ccccc2N(C)S(C)(=O)=O)n1 [Example 162]", "Experimental readout": "pIC50", "Reading": 7.81}
{"Compound": "CCN(c1ccccc1CNc1nc(-c2cc(F)c(O)cc2CC(F)(F)F)nc2[nH]nc(C(=O)NC)c12)S(C)(=O)=O [Example 103]", "Experimental readout": "pIC50", "Reading": 6.46}
{"Compound": "CCc1cc(O)c(F)cc1-c1cc2[nH]nc(C(=O)NC)c2c(NCc2cc(O)ccc2N(C)S(C)(=O)=O)n1 [Example 31]", "Experimental readout": "pIC50", "Reading": 8.34}

P = CNC(=O)c1n[nH]c2nc(-c3cc(F)c(O)cc3CC(F)(F)F)nc(NCc3ccccc3N(C)S(=O)(=O)NC)c12 [Example 110]
Q = CCN(c1ccc(C)cc1CNc1nc(-c2cc(F)c(O)cc2CC(F)(F)F)cc2[nH]nc(C(N)=O)c12)S(C)(=O)=O [Example 91]
R = CCc1cc(O)c(F)cc1-c1cc2[nH]ncc2c(NCc2ccccc2N(CC)S(=O)(=O)CC)n1 [Example 136, hydrochloride]
Input: # ascending order, key=pIC50 Output spec: a listing of the labels in the requested order.
Output: Q, P, R
(Q: 6.06, P: 7.46, R: 8.06)

A = CCN(c1ccc(Cl)cc1CNc1nc(-c2cc(F)c(O)cc2CC(F)(F)F)cc2[nH]nc(C(N)=O)c12)S(C)(=O)=O [Example 84]
B = CCc1cc(O)c(F)cc1-c1cc2[nH]ncc2c(N(C)Cc2ccccc2N(C)S(C)(=O)=O)n1 [Example 146, hydrochloride]
Input: Which numeric pIC50 is bigger, that of A or that of B ? Write down the label attached to your selection.
Output: B
(B: 7.30, A: 6.06)

P = CCc1cc(O)c(F)cc1-c1cc2[nH]ncc2c(NCc2cc(C)ccc2N(C)S(C)(=O)=O)n1 [Example 132, hydrochloride]
Q = CCc1cc(O)c(F)cc1-c1cc2[nH]nc(C(=O)NC)c2c(NCc2ccccc2N(C)S(C)(=O)=O)n1 [Example 19]
R = CCc1cc(O)c(F)cc1-c1cc2[nH]ncc2c(N(C)Cc2ccccc2N(CC)S(C)(=O)=O)n1 [Example 145, hydrochloride]
Input: # ascending order, key=pIC50 Output spec: a listing of the labels in the requested order.
Output: P, R, Q
(P: 5.89, R: 7.80, Q: 8.32)

* * *

These records show IC50 for TYK2 (Homo sapiens (Human), UniProt P29597).
Counter-ions that a name gives are not always drawn.
Experimental readout: IC50 (nM)

Recorded results for 5 compounds are shown here.
{"Compound": "CNC(=O)c1n[nH]c2cc(-c3cc(F)c(O)cc3CC(F)(F)F)nc(NCc3ccccc3N(C)S(=O)(=O)c3cn(C)cn3)c12", "Measurement unit": "nM", "IC50": 22.6}
{"Compound": "CN(c1ccccc1CNc1nc(-c2cc(F)c(O)cc2CC(F)(F)F)nc2[nH]nc(C(N)=O)c12)S(C)(=O)=O", "Measurement unit": "nM", "IC50": 600}
{"Compound": "CCc1cc(O)c(F)cc1-c1cc2[nH]nc(C(=O)NC)c2c(NCc2ccccc2N(C)S(N)(=O)=O)n1", "Measurement unit": "nM", "IC50": 33.9}
{"Compound": "CCc1cc(O)c(F)cc1-c1cc2[nH]ncc2c(N(CCc2ccc(OC)c(OC)c2)Cc2ccccc2N(C)S(C)(=O)=O)n1 [Example 129, hydrochloride]", "Measurement unit": "nM", "IC50": 56.6}
{"Compound": "CCc1cc(O)c(F)cc1-c1cc2[nH]nc(C(N)=O)c2c(NCc2ccccc2N(C)S(=O)(=O)c2ccccc2)n1", "Measurement unit": "nM", "IC50": 18.1}

1 = CCc1cc(O)c(F)cc1-c1cc2[nH]nc(-c3nc(C)c[nH]3)c2c(NCc2ccccc2N(C)S(C)(=O)=O)n1
2 = CCN(c1ncccc1CNc1nc(-c2cc(F)c(O)cc2CC(F)(F)F)cc2[nH]nc(C(N)=O)c12)S(C)(=O)=O
3 = CNC(=O)c1n[nH]c2cc(-c3cc(F)c(O)cc3CC(F)(F)F)nc(NCc3cccnc3N(C)S(C)(=O)=O)c12
Input: Arrange the 3 compounds from largest to smallest IC50. Output spec: a listing of the labels in the requested order.
Output: 3, 2, 1

* * *

These records show IC50 for JAK3 (Homo sapiens (Human)).
Where a name gives a salt, the structure may show the parent alone.
Experimental readout: IC50 (nM)

{"Molecule": "CCc1cc(O)ccc1-c1cc2[nH]ncc2c(NCc2ccccc2N(C)S(C)(=O)=O)n1 [Example 125, hydrochloride]", "Measurement unit": "nM", "IC50": 4.4}
{"Molecule": "CCN(c1ccc(O)cc1CNc1nc(-c2cc(F)c(O)cc2CC(F)(F)F)cc2[nH]nc(C(=O)NC)c12)S(=O)(=O)c1ccccc1", "Measurement unit": "nM", "IC50": 1230}

P = Cc1ccc(S(=O)(=O)N(C)c2ccccc2CNc2nc(-c3cc(F)c(O)cc3CC(F)(F)F)cc3[nH]nc(C(N)=O)c23)cn1
Q = CCc1cc(O)c(F)cc1-c1cc2[nH]ncc2c(N(C)Cc2ccccc2N(C)S(C)(=O)=O)n1 [Example 146, hydrochloride]
Input: Returns: the label, P or Q , whose recorded IC50 is the lower number. Write down the label attached to your selection.
Output: Q
(Q: 19.1 nM, P: 208 nM)

a = CCc1cc(O)cc(C)c1-c1cc2[nH]ncc2c(NCc2ccccc2N(C)S(C)(=O)=O)n1
b = Cc1ccc(-c2nnc(-c3n[nH]c4cc(-c5cc(F)c(O)cc5CC(F)(F)F)nc(NCc5ccccc5N(C)S(C)(=O)=O)c34)[nH]2)cn1
c = CCc1cc(O)c(F)cc1-c1cc2[nH]ncc2c(N(C)Cc2ccccc2N(CC)S(C)(=O)=O)n1 [Example 145, hydrochloride]
Input: # ascending order, key=IC50 Output spec: a listing of the labels in the requested order.
Output: c, a, b

* * *

test system: rhIFNγ stimulated STAT-3 phosphorylation in the A549 human epithelial cell line; experiment: A549 Cell Assay: Inhibition of pSTAT3; assay type: cell-based; conditions: Homo sapiens, A549 cells
pIC50: −log10 of the molar value. Counter-ions that a name gives are not always drawn.
Experimental readout: pIC50

{"Molecule": "CCc1cc(O)c(F)cc1-c1nc(NCc2ccccc2N(C)S(C)(=O)=O)c2cn[nH]c2n1 [Example 155, hydrochloride]", "pIC50": 7.52}

1 = CNC(=O)c1n[nH]c2nc(-c3cc(F)c(O)cc3CC(F)(F)F)nc(NCc3nccnc3N(C)S(C)(=O)=O)c12 [Example 100]
2 = CN(c1ccc(O)cc1CNc1nc(-c2cc(F)c(O)cc2CC(F)(F)F)nc2[nH]nc(C(N)=O)c12)S(C)(=O)=O [Example 97]
Input: Returns: the label, 1 or 2 , whose recorded pIC50 is the lower number. Write down the label attached to your selection.
Output: 1
(1: 5.16, 2: 5.68)

1 = CN(C)CCNC(=O)N1CCc2[nH]c(-c3n[nH]c4nc(-c5cc(F)c(O)cc5CC(F)(F)F)nc(NCc5cc(O)ccc5N(C)S(C)(=O)=O)c34)nc2C1 [Example 171]
2 = CCc1cc(O)c(F)cc1-c1cc2[nH]nc(-c3nc(C)c(C)[nH]3)c2c(NCc2ccccc2N(C)S(C)(=O)=O)n1 [Example 158]
Input: Which numeric pIC50 is bigger, that of 1 or that of 2 ? Write down the label attached to your selection.
Output: 2

1 = Cc1nnc(-c2n[nH]c3cc(-c4cc(F)c(O)cc4CC(F)(F)F)nc(NCc4ccccc4N(C)S(C)(=O)=O)c23)[nH]1 [Example 164]
2 = CN(c1ccc(O)cc1CNc1nc(-c2cc(F)c(O)cc2CC(F)(F)F)cc2[nH]nc(C(=O)Nc3ccc(NCCO)nc3)c12)S(C)(=O)=O [Example 75]
Input: Returns: the label, 1 or 2 , whose recorded pIC50 is the lower number. Write down the label attached to your selection.
Output: 1
